target-or-system: FLT3 (Homo sapiens (Human), UniProt P36888)
Sequence (P36888 27-993): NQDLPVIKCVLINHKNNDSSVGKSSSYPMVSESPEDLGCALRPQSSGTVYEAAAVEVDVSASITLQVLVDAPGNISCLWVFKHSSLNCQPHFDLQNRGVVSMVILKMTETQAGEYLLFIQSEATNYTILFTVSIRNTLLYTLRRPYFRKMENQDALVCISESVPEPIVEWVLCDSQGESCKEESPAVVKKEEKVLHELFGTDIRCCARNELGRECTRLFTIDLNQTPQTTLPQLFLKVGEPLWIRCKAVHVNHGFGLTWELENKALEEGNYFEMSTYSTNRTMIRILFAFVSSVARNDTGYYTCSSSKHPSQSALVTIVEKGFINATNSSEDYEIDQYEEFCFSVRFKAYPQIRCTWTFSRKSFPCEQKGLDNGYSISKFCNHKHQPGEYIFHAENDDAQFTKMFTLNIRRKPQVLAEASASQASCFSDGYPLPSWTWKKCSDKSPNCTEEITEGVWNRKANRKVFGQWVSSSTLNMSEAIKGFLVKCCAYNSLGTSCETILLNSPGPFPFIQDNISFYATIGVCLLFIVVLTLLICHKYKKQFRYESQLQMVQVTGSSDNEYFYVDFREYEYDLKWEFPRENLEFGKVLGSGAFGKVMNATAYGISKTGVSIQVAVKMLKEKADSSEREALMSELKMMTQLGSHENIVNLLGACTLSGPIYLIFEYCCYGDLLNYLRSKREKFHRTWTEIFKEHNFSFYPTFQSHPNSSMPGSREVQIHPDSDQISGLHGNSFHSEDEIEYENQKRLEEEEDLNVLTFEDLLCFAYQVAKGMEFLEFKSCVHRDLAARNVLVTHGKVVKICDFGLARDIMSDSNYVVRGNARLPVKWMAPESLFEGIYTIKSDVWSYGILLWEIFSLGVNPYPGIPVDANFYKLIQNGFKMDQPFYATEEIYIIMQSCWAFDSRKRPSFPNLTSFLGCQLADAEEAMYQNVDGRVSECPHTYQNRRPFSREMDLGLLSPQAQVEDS
protocol-summary: FLT3 kinase test (Z'-LYTE)
Assay type: biochemical
run-conditions: Table 1; read-out: FLT3-inhibition IC50-value
Method: The activity of FLT3 is measured using the Z′-LYTETM assay technology from Invitrogen (#PV3191) The reaction is started by addition of 2.5 μl of the 4×ATP solution. Positive controls are reaction mixtures containing no test compound; negative controls (blanks) are reaction mixtures containing no kinase. […] The output text file is evaluated in an “MS-Excel—VB-Makro” and “GraphPadPrism” (Version 5) (GraphPad Software Inc.) is used to calculate the results. […]
Exercise: for every item that follows, state its recorded IC50.
Kindly answer with a numeric value in µM, unit omitted.

Prompt line: Name the recorded IC50 of the item `C[C@@H](Oc1nc(-c2cc3nn(C)cc3c(O[C@H](C)[C@H]3CNC(=O)C3)n2)cc2nn(C)cc12)[C@@H]1CNC(=O)C1` in your answer.
Response line: 37.4

Prompt line: Name the recorded IC50 of the item `C[C@@H](Oc1nc(-c2ccc3c(c2)CCN(C)CC3)cc2nn(C)cc12)[C@H]1CNC(=O)C1` in your answer.
Response line: 3.07

Prompt line: Name the recorded IC50 of the item `CCn1cc(-c2cc3nn(C)cc3c(O[C@H](C)[C@H]3CNC(=O)C3)n2)cn1` in your answer.
Response line: 17.1

Prompt line: Name the recorded IC50 of the item `C[C@@H](Oc1nc(-c2cnn(C)c2)cc2nn(C)cc12)[C@H]1CNC(=O)C1` in your answer.
Response line: 13.2

Prompt line: Name the recorded IC50 of the item `C[C@@H](Oc1nc(-c2cnn(C3CCC(F)(F)CC3)c2)cc2nn(C)cc12)[C@H]1CNC(=O)C1` in your answer.
Response line: 8.03

Prompt line: Name the recorded IC50 of the item `C[C@@H](Oc1cc(-c2ccc(C3CCN(C)CC3)cc2)cc2nn(C)cc12)[C@H]1CNC(=O)C1` in your answer.
Response line: 0.55

Prompt line: Name the recorded IC50 of the item `C[C@@H](Oc1cc(-c2ccc(N3CCCS3(=O)=O)cc2)cc2nn(C)cc12)[C@H]1CNC(=O)C1` in your answer.
Response line: 3.88

Prompt line: Name the recorded IC50 of the item `C[C@@H](Oc1nc(-c2ccc(C(F)F)nc2)cc2nn(C)cc12)[C@H]1CNC(=O)C1` in your answer.
Response line: 20.9

Prompt line: Name the recorded IC50 of the item `COc1cc(-c2cc3nn(C)cc3c(O[C@H](C)[C@H]3CNC(=O)C3)n2)ccc1O` in your answer.
Response line: 13.5

Prompt line: Name the recorded IC50 of the item `C[C@@H](Oc1nc(-c2cnn(CCC(F)(F)F)c2)cc2nn(C)cc12)[C@H]1CNC(=O)C1` in your answer.
Response line: 14.8

Prompt line: Name the recorded IC50 of the item `C[C@@H](Oc1cc(-c2cnn(CCC(F)(F)F)c2)cc2nn(C)cc12)[C@H]1CNC(=O)C1` in your answer.
Response line: 10.1

Prompt line: Name the recorded IC50 of the item `CC(C)n1cc(-c2cc3nn(C)cc3c(O[C@H](C)[C@H]3CNC(=O)C3)n2)cn1` in your answer.
Response line: 14.8

Prompt line: Name the recorded IC50 of the item `C[C@@H](Oc1nc(-c2cc3cccc(Cl)c3[nH]2)cc2nn(C)cc12)[C@H]1CNC(=O)C1` in your answer.
Response line: 3.75

Prompt line: Name the recorded IC50 of the item C[C@@H](Oc1nc(-c2cnn(C3CCCCO3)c2)cc2nn(C)cc12)[C@H]1CNC(=O)C1 (stereo partly drawn) in your answer.
Response line: 17.4

Prompt line: Name the recorded IC50 of the item `C[C@@H](Oc1cc(-c2cc3cccc(Cl)c3[nH]2)cc2nn(C)cc12)[C@H]1CNC(=O)C1` in your answer.
Response line: 16.9

* * *

target-or-system: Recombinant human Aurora B (amino acids 1-344) (Homo sapiens (Human), UniProt Q96GD4)
Sequence (Q96GD4 whole entry, the tested form may be a part): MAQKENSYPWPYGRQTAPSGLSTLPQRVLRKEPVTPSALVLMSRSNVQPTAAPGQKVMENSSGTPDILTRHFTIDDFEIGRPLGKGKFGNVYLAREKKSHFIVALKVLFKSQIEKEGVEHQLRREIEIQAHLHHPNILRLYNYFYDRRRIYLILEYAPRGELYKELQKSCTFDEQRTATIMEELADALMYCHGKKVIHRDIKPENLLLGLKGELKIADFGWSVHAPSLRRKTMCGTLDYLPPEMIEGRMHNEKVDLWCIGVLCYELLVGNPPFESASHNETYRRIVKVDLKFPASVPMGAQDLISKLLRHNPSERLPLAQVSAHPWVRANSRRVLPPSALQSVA
protocol-summary: Aurora B kinase test (ADP Glo luminescence)
Type: biochemical
run-conditions: read-out: IC50 in μM (AURB-Inhibition)
Exercise: for every item that follows, state its recorded IC50.
Kindly answer with a numeric value in µM, unit omitted.

Prompt line: Answer briefly: IC50 recorded on Recombinant human Aurora B (amino acids 1-344) (Homo sapiens (Human), UniProt Q96GD4) for `C[C@@H](Oc1cc(-c2ccc3c(c2)ncn3C)cc2ncccc12)[C@H]1CNC(=O)C1`
Response line: 0.298

Prompt line: Answer briefly: IC50 recorded on Recombinant human Aurora B (amino acids 1-344) (Homo sapiens (Human), UniProt Q96GD4) for `C[C@@H](Oc1cc(-c2ccc3ncccc3c2)cc2ncccc12)[C@H]1CNC(=O)C1`
Response line: 0.293

Prompt line: Answer briefly: IC50 recorded on Recombinant human Aurora B (amino acids 1-344) (Homo sapiens (Human), UniProt Q96GD4) for `C[C@@H](Oc1cc(-c2ccc3c(c2)c(N)nn3C)cc2nn(C)cc12)[C@H]1CNC(=O)C1`
Response line: 35.2

Prompt line: Answer briefly: IC50 recorded on Recombinant human Aurora B (amino acids 1-344) (Homo sapiens (Human), UniProt Q96GD4) for `C[C@@H](Oc1nc(-c2ccc(C(F)F)nc2)cc2nn(C)cc12)[C@H]1CNC(=O)C1`
Response line: 49.8

Prompt line: Answer briefly: IC50 recorded on Recombinant human Aurora B (amino acids 1-344) (Homo sapiens (Human), UniProt Q96GD4) for `COc1cc(-c2cc3ncccc3c(O[C@H](C)[C@H]3CNC(=O)C3)n2)ccc1OC(F)(F)F`
Response line: 1.85

Prompt line: Answer briefly: IC50 recorded on Recombinant human Aurora B (amino acids 1-344) (Homo sapiens (Human), UniProt Q96GD4) for `C[C@@H](Oc1cc(-c2ccc(C(=O)N3CCN(C)CC3)cc2)cc2ncccc12)[C@H]1CNC(=O)C1`
Response line: 0.075

* * *

target-or-system: FLT3 (Homo sapiens (Human), UniProt P36888)
protocol-summary: FLT3 kinase test (Z'-LYTE)
Assay type: biochemical
run-conditions: read-out: IC50 in μM (FLT3-Inhibition)
Values of IC50 strictly less than 0.3 µM map to Condition met, and values of at least 0.3 µM map to Condition not met.

Prompt line: I'd appreciate it if you could check whether `C[C@@H](Oc1nc(-c2ccc3c(cnn3C)c2)cc2nn(C)cc12)[C@H]1CNC(=O)C1` has IC50 smaller than 0.3 µM.
Response line: Condition not met

Prompt line: I'd appreciate it if you could check whether `C[C@@H](Oc1cc(-c2ccc3c(c2)ncn3C)cc2ncccc12)[C@H]1CNC(=O)C1` has IC50 smaller than 0.3 µM.
Response line: Condition met

Prompt line: I'd appreciate it if you could check whether `C[C@@H](Oc1cc(-c2ccc3ncccc3c2)cc2ncccc12)[C@H]1CNC(=O)C1` has IC50 smaller than 0.3 µM.
Response line: Condition not met

Prompt line: I'd appreciate it if you could check whether `C[C@@H](Oc1cc(-c2ccc3c(c2)CNCC3)cc2ncccc12)[C@H]1CNC(=O)C1` has IC50 smaller than 0.3 µM.
Response line: Condition met

Prompt line: I'd appreciate it if you could check whether `COc1cc(-c2cc3ncccc3c(O[C@H](C)[C@H]3CNC(=O)C3)n2)cc(Cl)c1OC` has IC50 smaller than 0.3 µM.
Response line: Condition not met

Prompt line: I'd appreciate it if you could check whether `COc1cc(-c2cc(O[C@H](C)[C@H]3CNC(=O)C3)c3cccnc3c2)ccc1C(F)(F)F` has IC50 smaller than 0.3 µM.
Response line: Condition not met

Prompt line: I'd appreciate it if you could check whether `C[C@@H](Oc1cc(-c2ccc3ncn(C)c3c2)cc2ncccc12)[C@H]1CNC(=O)C1` has IC50 smaller than 0.3 µM.
Response line: Condition not met

Prompt line: I'd appreciate it if you could check whether `COc1cc(-c2cc(O[C@H](C)[C@H]3CNC(=O)C3)c3cccnc3c2)ccc1OC(C)C` has IC50 smaller than 0.3 µM.
Response line: Condition not met

Prompt line: I'd appreciate it if you could check whether `COc1cc(-c2cc3ncccc3c(O[C@H](C)[C@H]3CNC(=O)C3)n2)cc(OC)c1Cl` has IC50 smaller than 0.3 µM.
Response line: Condition not met

* * *

protocol-summary: Human liver microsomal stability test
Assay type: in vitro ADME
run-conditions: human liver microsomes; Qh = liver blood flow
Protocol: The metabolic degradation for a specific SYK-inhibitor is performed at 37° C. with pooled human liver microsomes (human liver microsomes are commercially available as “BD UltraPool™” by Corning Life Sciences, Fogostraat 12, 1060 LJ Amsterdam, The Netherlands). […] An aliquot of the supernatant is assayed by LC-MS/MS for the remaining amount of parent compound. The half-life (t1/2 INVITRO) is determined by the slope of the semilogarithmic plot of the concentration-time profile. […]
Values of microsomal stability Cl [% Qh] strictly less than 40 % Qh map to t, and values of at least 40 % Qh map to f.

Prompt line: I'd appreciate it if you could check whether `C[C@@H](Oc1cc(-c2ccc3c(c2)c(N)nn3C)cc2nn(C)cc12)[C@H]1CNC(=O)C1` has microsomal stability Cl [% Qh] smaller than 40 % Qh.
Response line: t

Prompt line: I'd appreciate it if you could check whether `Cc1nc2ccc(-c3cc(O[C@H](C)[C@H]4CNC(=O)C4)c4cccnc4c3)cc2s1` has microsomal stability Cl [% Qh] smaller than 40 % Qh.
Response line: f

Prompt line: I'd appreciate it if you could check whether `COc1cc(-c2cc3ncccc3c(O[C@H](C)[C@H]3CNC(=O)C3)n2)cc(Cl)c1OC` has microsomal stability Cl [% Qh] smaller than 40 % Qh.
Response line: f

Prompt line: I'd appreciate it if you could check whether `C[C@@H](Oc1cc(-c2ccc(N3CCOCC3)cc2)cc2nn(C)cc12)[C@H]1CNC(=O)C1` has microsomal stability Cl [% Qh] smaller than 40 % Qh.
Response line: t

Prompt line: I'd appreciate it if you could check whether `C[C@@H](Oc1cc(-c2ccc3[nH]cnc3c2)cc2ncccc12)[C@H]1CNC(=O)C1` has microsomal stability Cl [% Qh] smaller than 40 % Qh.
Response line: t

Prompt line: I'd appreciate it if you could check whether `C[C@@H](Oc1nc(-c2ccc(N3CCOCC3)nc2)cc2ncccc12)[C@H]1CNC(=O)C1` has microsomal stability Cl [% Qh] smaller than 40 % Qh.
Response line: f

Prompt line: I'd appreciate it if you could check whether `COc1cc(-c2cc(O[C@H](C)[C@H]3CNC(=O)C3)c3cccnc3c2)ccc1O` has microsomal stability Cl [% Qh] smaller than 40 % Qh.
Response line: t
